These data points were gathered from patent EP0006987A1.

- protocol.summary: Blood, urine and tissue concentrations in mice after oral administration (microbiological assay with Bacillus pumilus)
- Assay type: in vivo
- condition.parameters: blood, po, 2mg/mouse P.O., 4 hours after dosing, read-out: Conc. in blood at 4HR
Assign class by concentration at 4 h: not lower than 600 ng/mL means 1.0; lower than 600 ng/mL means 0.0.

[[record]]
compound = "CCCc1cc(Cc2cnc(N)nc2N)cc(CC)c1O [COMPOUND 3]"
label = 1.0

[[record]]
compound = "CC(C)(C)c1cc(Cc2cnc(N)nc2N)cc(C(C)(C)C)c1O [COMPOUND 5]"
label = 1.0

[[record]]
compound = "CCc1cc(Cc2cnc(N)nc2N)cc(CC)c1O [COMPOUND 1]"
label = 0.0

[[record]]
compound = "CCCc1cc(Cc2cnc(N)nc2N)cc(CCC)c1O [COMPOUND 2]"
label = 0.0

[[record]]
compound = "COc1cc(Cc2cnc(N)nc2N)cc(OC)c1OC [TMP, reference compound]"
label = 0.0

[[record]]
compound = "CC(C)c1cc(Cc2cnc(N)nc2N)cc(C(C)C)c1O [COMPOUND 4]"
label = 1.0


---

- protocol.summary: Blood, urine and tissue concentrations in mice after oral administration (microbiological assay with Bacillus pumilus)
- Format: in vivo
- condition.parameters: 2mg/mouse P.O., 4 hours, appears to be direct urine concentration as percent of that after Glusalase
Entries annotated with measured Urine Direct (percentage in brackets)
test.readout: Urine Direct (percentage in brackets) (%)

[[record]]
molecule = "COc1cc(Cc2cnc(N)nc2N)cc(OC)c1OC [TMP, reference compound]"
test_readout = "Urine Direct (percentage in brackets)"
scale_unit = "%"
reading = 50

[[record]]
molecule = "CC(C)(C)c1cc(Cc2cnc(N)nc2N)cc(C(C)(C)C)c1O [COMPOUND 5]"
test_readout = "Urine Direct (percentage in brackets)"
scale_unit = "%"
reading = 42

[[record]]
molecule = "CC(C)c1cc(Cc2cnc(N)nc2N)cc(C(C)C)c1O [COMPOUND 4]"
test_readout = "Urine Direct (percentage in brackets)"
scale_unit = "%"
reading = 50

[[record]]
molecule = "CCc1cc(Cc2cnc(N)nc2N)cc(CC)c1O [COMPOUND 1]"
test_readout = "Urine Direct (percentage in brackets)"
scale_unit = "%"
reading = 7

[[record]]
molecule = "CCCc1cc(Cc2cnc(N)nc2N)cc(CC)c1O [COMPOUND 3]"
test_readout = "Urine Direct (percentage in brackets)"
scale_unit = "%"
reading = 2.2

[[record]]
molecule = "CCCc1cc(Cc2cnc(N)nc2N)cc(CCC)c1O [COMPOUND 2]"
test_readout = "Urine Direct (percentage in brackets)"
scale_unit = "%"
reading = 2.5


---

Entries annotated with measured concentration at 1 h
- protocol.summary: Blood, urine and tissue concentrations in mice after oral administration (microbiological assay with Bacillus pumilus)
- Assay type: in vivo
- condition.parameters: blood, po, 2mg/mouse P.O., 1 hour after dosing, read-out: Conc. in blood at 1HR
test.readout: concentration at 1 h (ng/mL)

[[record]]
molecule = "CCCc1cc(Cc2cnc(N)nc2N)cc(CCC)c1O [COMPOUND 2]"
reading = 1360

[[record]]
molecule = "CCc1cc(Cc2cnc(N)nc2N)cc(CC)c1O [COMPOUND 1]"
reading = 1110

[[record]]
molecule = "CC(C)(C)c1cc(Cc2cnc(N)nc2N)cc(C(C)(C)C)c1O [COMPOUND 5]"
reading = 4250

[[record]]
molecule = "CCCc1cc(Cc2cnc(N)nc2N)cc(CC)c1O [COMPOUND 3]"
reading = 880

[[record]]
molecule = "COc1cc(Cc2cnc(N)nc2N)cc(OC)c1OC [TMP, reference compound]"
reading = 2150

[[record]]
molecule = "CC(C)c1cc(Cc2cnc(N)nc2N)cc(C(C)C)c1O [COMPOUND 4]"
reading = 1380

